Each recorded value in this set is attributed to patent US20260263485A1.

- ASSAY: Plasma pharmacokinetics of aqueous ENT-03S solution without cyclodextrin after subcutaneous injection
- Assay type: in vivo, rat
- TEST_PARAMETERS: male, Sprague-Dawley, rat, plasma, sc, 10 mg/kg, 2 mg/ml, 10 mg/kg SC, male SD rats, 8 h, individual rats, read-out: Concentration (ng/ml) Rat 1-3
EXPERIMENTAL_READOUT: concentration at 8 h (ng/mL)
The reply should contain only the number, in ng/mL.

Specify measured concentration at 8 h for C[C@H](CCC[C@H](C)C(=O)O)[C@H]1CCC2C3C(CC[C@@]21C)[C@@]1(C)CC[C@H](NCCCNCCCCNCCCN)C[C@@H]1C[C@H]3O (stereo partly drawn) [ENT-03S] .
26900

---

- ASSAY: Plasma pharmacokinetics of ENT-03S cyclodextrin formulation after subcutaneous injection
- Format: in vivo, rat
- TEST_PARAMETERS: male, Sprague-Dawley, rat, plasma, sc, 10 mg/kg, 20% beta-cyclodextrin formulation; 10 mg/kg SC; male SD rats; 1 h; individual rats; read-out: Concentration (ng/ml) Rat 1-3
EXPERIMENTAL_READOUT: concentration at 1 h (ng/mL)
// units = ng/mL; emit number, no label

Tell me measured concentration at 1 h for C[C@H](CCC[C@H](C)C(=O)O)[C@H]1CCC2C3C(CC[C@@]21C)[C@@]1(C)CC[C@H](NCCCNCCCCNCCCN)C[C@@H]1C[C@H]3O (stereo partly drawn) [ENT-03S] please.
30700

---

- ASSAY: Plasma pharmacokinetics of ENT-03S cyclodextrin formulation after subcutaneous injection
- Assay type: in vivo, rat
- TEST_PARAMETERS: male, Sprague-Dawley, rat, plasma, sc, 10 mg/kg, 20% beta-cyclodextrin formulation; SC Dose 10 mg/kg; male SD rats; plasma; mean; read-out: Cmax Mean
- Procedure: In this example, ENT-03S was formulated with unmodified beta-cyclodextrin at a concentration of 25 mg/ml ENT-03, and 20% beta-cyclodextrin, pH 7.5, buffered with phosphate. Male Sprague-Dawley rats were administered the ENT-03-cyclodextrin formulation subcutaneous at a dose of 10 mg/kg. Blood samples were drawn from the tail vein at various times, the concentrations of ENT-03 determined, and PK parameters determined.
EXPERIMENTAL_READOUT: Cmax
Number first, unit second: that is the form wanted.

Give the value of Cmax reported for the following: C[C@H](CCC[C@H](C)C(=O)O)[C@H]1CCC2C3C(CC[C@@]21C)[C@@]1(C)CC[C@H](NCCCNCCCCNCCCN)C[C@@H]1C[C@H]3O (stereo partly drawn) [ENT-03S]
32.4 µg/mL

---

- ASSAY: Plasma pharmacokinetics of aqueous ENT-03S solution without cyclodextrin after subcutaneous injection
- Assay type: in vivo, rat
- TEST_PARAMETERS: male, Sprague-Dawley, rat, plasma, sc, 10 mg/kg, 2 mg/ml, 10 mg/kg SC, male SD rats, 0.5 h, mean
EXPERIMENTAL_READOUT: concentration at 0.5 h (ng/mL)
State the answer as a number, implicitly in ng/mL.

Note down concentration at 0.5 h recorded for C[C@H](CCC[C@H](C)C(=O)O)[C@H]1CCC2C3C(CC[C@@]21C)[C@@]1(C)CC[C@H](NCCCNCCCCNCCCN)C[C@@H]1C[C@H]3O (stereo partly drawn) [ENT-03S]
2340
